# method: Pharmacokinetic (PK) study in ICR mice, IV and PO
# measurement setup: ICR, mouse, plasma, po, 5 mg/kg
reported endpoint: bioavailability (%)

(1) COc1cc2sc(C(=O)CCC(=O)O)cc2c2ncoc12
(2) COc1cc2sc(C(=O)C[C@H](C)C(=O)O)cc2c2cc(F)oc12
Identify the entry with the larger bioavailability. Options: 1 and 2 // output: label of the selected item
2
(2: 92.9%, 1: 47%)

(a) COc1cc2sc(C(=O)C[C@H](C)C(=O)O)cc2c2c(F)c(C)oc12
(b) COc1cc2cc(C(=O)CCC(=O)O)sc2cc1OC [MAS-2, reference compound]
(c) CC[C@@H](CC(=O)c1cc2c(cc(OC)c3ocnc32)s1)C(=O)O
// sort entries: bioavailability, high to low Use the labels to give the requested order.
c, b, a
(c: 105%, b: 61.2%, a: 38%)

----------
# system: Sting-HAQ (Homo sapiens, UniProt Q86WV6, G230A/H232R/R293Q/R71H)
# Sequence (Q86WV6 whole entry R71H/G230A/H232R/R293Q): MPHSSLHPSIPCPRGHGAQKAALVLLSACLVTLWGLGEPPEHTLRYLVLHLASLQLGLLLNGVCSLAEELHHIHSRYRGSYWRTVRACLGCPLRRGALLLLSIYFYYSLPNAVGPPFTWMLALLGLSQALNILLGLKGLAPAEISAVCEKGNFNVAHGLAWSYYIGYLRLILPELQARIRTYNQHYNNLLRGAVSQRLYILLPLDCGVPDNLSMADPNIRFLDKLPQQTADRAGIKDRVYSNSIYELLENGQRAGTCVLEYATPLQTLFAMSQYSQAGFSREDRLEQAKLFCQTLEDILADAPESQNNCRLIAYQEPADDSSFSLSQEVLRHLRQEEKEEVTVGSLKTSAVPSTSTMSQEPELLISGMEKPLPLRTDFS
# method: HEK293-HAQ Luc reporter gene assay (Steady-Glo luciferase)
# measurement setup: 24 h incubation; read-out: HEK293-HAQ Luc Report Assay (24 h) EC50
reported endpoint: EC50 (nM)

Worked set:
{"compound": "COc1cc2sc(C(=O)C[C@H](C)C(=O)O)cc2c2c(F)c(C)oc12 [drawing 678]", "unit": "nM", "reading": 190}
{"compound": "COc1cc2sc(C(=O)CC(C)C(=O)O)nc2c2nc(C)oc12 (centres unmarked)", "unit": "nM", "reading": 3320}
{"compound": "COc1cc2sc(C(=O)CCC(=O)O)cc2c2nc(C)oc12 [drawing 626]", "unit": "nM", "reading": 1580}
{"compound": "C[C@@H](CC(=O)c1cc2c(cc(O)c3oc(F)cc32)s1)C(=O)O", "unit": "nM", "reading": 29300}
{"compound": "COc1cc2sc(C(=O)CCC(=O)O)nc2c2nc(C)oc12", "unit": "nM", "reading": 18000}

(1) CCc1nc2c(o1)c(OC)cc1sc(C(=O)CCC(=O)O)cc12
(2) COc1cc2sc(C(=O)CCC(=O)O)cc2c2ocnc12
Lowest EC50? choose 1 or 2 // output: label of the selected item
2

(A) COc1cc2sc(C(=O)CCC(=O)O)cc2c2cc(F)oc12
(B) COc1cc2sc(C(=O)CC(C)C(=O)O)cc2c2ccoc12 (centres unmarked)
Identify the entry with the larger EC50. Options: A and B // output: label of the selected item
B

----------
# method: Pharmacokinetic (PK) study in ICR mice, IV and PO
# measurement setup: ICR, mouse, plasma, po, 5 mg/kg
reported endpoint: Cmax (ng/mL)

Worked set:
{"molecule": "COc1cc2sc(C(=O)C[C@H](C)C(=O)O)cc2c2c(F)c(C)oc12", "Cmax (ng/mL)": 7700}
{"molecule": "COc1cc2sc(C(=O)CCC(=O)O)cc2c2nc(C)oc12", "Cmax (ng/mL)": 4280}
{"molecule": "CC[C@@H](CC(=O)c1cc2c(cc(OC)c3ocnc32)s1)C(=O)O", "Cmax (ng/mL)": 4550}

(P) COc1cc2cc(C(=O)CCC(=O)O)sc2cc1OC [MAS-2, reference compound]
(Q) COc1cc2sc(C(=O)C[C@H](C)C(=O)O)cc2c2cc(C)oc12
(R) COc1cc2sc(C(=O)C[C@H](C)C(=O)O)cc2c2cc(F)oc12
(S) COc1cc2sc(C(=O)CCC(=O)O)cc2c2ncoc12
// sort entries: Cmax, high to low Use the labels to give the requested order.
R, Q, P, S

----------
# method: Pharmacokinetic (PK) study in ICR mice, IV and PO
# measurement setup: ICR, mouse, plasma, po, 5 mg/kg
reported endpoint: AUC(0-t) (ng·h/mL)

{"compound": "COc1cc2sc(C(=O)C[C@H](C)C(=O)O)cc2c2c(F)c(C)oc12", "unit": "ng·h/mL", "AUC(0-t)": 5180}
{"compound": "COc1cc2sc(C(=O)C[C@H](C)C(=O)O)cc2c2cc(C)oc12", "unit": "ng·h/mL", "AUC(0-t)": 3450}
{"compound": "COc1cc2sc(C(=O)C[C@H](C)C(=O)O)cc2c2cc(F)oc12", "unit": "ng·h/mL", "AUC(0-t)": 10200}

(a) COc1cc2sc(C(=O)CCC(=O)O)cc2c2nc(C)oc12
(b) CC[C@@H](CC(=O)c1cc2c(cc(OC)c3ocnc32)s1)C(=O)O
(c) COc1cc2sc(C(=O)CCC(=O)O)cc2c2ncoc12
(d) COc1cc2cc(C(=O)CCC(=O)O)sc2cc1OC [MAS-2, reference compound]
Ordering: ascending AUC(0-t). Use the labels to give the requested order.
c, d, a, b
(c: 757 ng·h/mL, d: 1530 ng·h/mL, a: 3680 ng·h/mL, b: 8550 ng·h/mL)

----------
Let's look at some molecules and their measured AUC(0-t).
# method: in vivo
# measurement setup: ICR, mouse, po, 5 mg/kg
Kindly answer with a numeric value in ng·h/mL, unit omitted.

{"molecule": "COc1cc2sc(C(=O)CC(C)C(=O)O)cc2c2ncoc12 (centres unmarked)", "reported endpoint": "AUC(0-t)", "reading": 4060}

Alright, here's another molecule for you.
Item under review: COc1cc2sc(C(=O)C[C@H](C)C(=O)O)cc2c2ncoc12 . Reported AUC(0-t)?
5710

----------
# system: Sting-HAQ (Homo sapiens, UniProt Q86WV6, G230A/H232R/R293Q/R71H)
# method: HEK293-HAQ Luc reporter gene assay (Steady-Glo luciferase)
# measurement setup: 24 h incubation; read-out: HEK293-HAQ Luc Report Assay (24 h) EC50
# Method: Test Principle: The HEK293-HAQ Luc reporter cell line utilizes the chemiluminescent reaction property of luciferase binding to its substrate beetle luciferin. […] After treatment with compounds, the cells are lysed, and the luciferase activity is measured using the Steady-Glo® detection system (Cat #E2550) manufactured by Promega Corporation. The effect of compounds on the Sting-HAQ regulatory elements is determined based on the level of luciferase activity. […]
reported endpoint: EC50 (µM)

{"molecule": "CC[C@H](CC(=O)c1cc2c(cc(OC)c3oc(F)cc32)s1)C(=O)O", "system": "Sting-HAQ (Homo sapiens, UniProt Q86WV6, G230A/H232R/R293Q/R71H)", "unit": "µM", "EC50": 4.1}
{"molecule": "COc1cc2sc(C(=O)C[C@@H](C)C(=O)O)nc2c2nc(C)oc12", "system": "Sting-HAQ (Homo sapiens, UniProt Q86WV6, G230A/H232R/R293Q/R71H)", "unit": "µM", "EC50": 67.7}
{"molecule": "COc1cc2cc(C(=O)CCC(=O)O)sc2cc1OC [MAS-2, reference compound]", "system": "Sting-HAQ (Homo sapiens, UniProt Q86WV6, G230A/H232R/R293Q/R71H)", "unit": "µM", "EC50": 2.59}
{"molecule": "CC[C@H](CC(=O)c1cc2c(cc(OC)c3oc(C)cc32)s1)C(=O)O", "system": "Sting-HAQ (Homo sapiens, UniProt Q86WV6, G230A/H232R/R293Q/R71H)", "unit": "µM", "EC50": 4.46}
{"molecule": "COc1cc2sc(C(=O)C[C@@H](C)C(=O)O)cc2c2c(F)c(C)oc12", "system": "Sting-HAQ (Homo sapiens, UniProt Q86WV6, G230A/H232R/R293Q/R71H)", "unit": "µM", "EC50": 1.51}

(I) COc1cc2sc(C(=O)CCC(=O)O)cc2c2cn(C)nc12
(II) COc1cc2sc(C(=O)CCC(=O)O)cc2c2c1OCC2
Identify the entry with the larger EC50. Options: I and II // output: label of the selected item
I
(I: 49 µM, II: 7.87 µM)

----------
# method: Pharmacokinetic (PK) study in ICR mice, IV and PO
# measurement setup: ICR, mouse, plasma, iv, 2 mg/kg
reported endpoint: AUC(0-t) (ng·h/mL)

Worked set:
{"molecule": "COc1cc2sc(C(=O)C[C@H](C)C(=O)O)cc2c2cc(C)oc12", "AUC(0-t) (ng·h/mL)": 3700}
{"molecule": "COc1cc2sc(C(=O)CCC(=O)O)cc2c2nc(C)oc12", "AUC(0-t) (ng·h/mL)": 4240}

(1) COc1cc2sc(C(=O)C[C@H](C)C(=O)O)cc2c2c(F)c(C)oc12
(2) CC[C@@H](CC(=O)c1cc2c(cc(OC)c3ocnc32)s1)C(=O)O
(3) COc1cc2cc(C(=O)CCC(=O)O)sc2cc1OC [MAS-2, reference compound]
(4) COc1cc2sc(C(=O)CCC(=O)O)cc2c2ncoc12
Ordering: ascending AUC(0-t). Use the labels to give the requested order.
4, 3, 2, 1
